Where these numbers come from: PubChem BioAssay (NCATS)

System: CAOV3
Assay: Primary qHTS to identify gynecologic anti-cancer compounds using libraries of approved drugs and bioactive compounds (AID 1345084); also: nearly all actives have a fitted effect of over 55% in size
Settings: Gynecologic cancer cell panel viability, ATPlite luminescence, 48 h; series mostly up to 57.5 µM
Records with an inconclusive call do not appear. Active and inactive are the calls of the source. Calls follow the shape of the dose curve; as a rule, active = well fitted cell-killing curve with a large enough effect; inconclusive = small, poorly fitted or top-dose-only effect, or effect the other way; inactive = flat fitted curve, though single readings scatter.
Classes used: y (active), n (inactive)

{"molecule": "CC(c1cc2ccccc2s1)N(O)C(N)=O (configuration not stated)", "class": "n"}
{"molecule": "CN(C)c1ccc(C2Nc3ccc4ccccc4c3C3=C2C(=O)CC(C)(C)C3)cc1Br (configuration not stated)", "class": "n"}
{"molecule": "CS(=O)(=O)c1ccc(C(=O)Nc2ccc(Cl)c(-c3ccccn3)c2)c(Cl)c1", "class": "n"}
{"molecule": "NC[C@H](O)c1ccc(O)c(O)c1", "class": "n"}
{"molecule": "Cc1cn[nH]c1", "class": "n"}
{"molecule": "CNC[C@H](O)c1cccc(O)c1", "class": "n"}
{"molecule": "CCCS(=O)(=O)Nc1ccc(F)c(C(=O)c2c[nH]c3ncc(-c4ccc(Cl)cc4)cc23)c1F", "class": "n"}
{"molecule": "COc1nc(-c2ccc3c(c2)OCO3)n(-c2ccc(NC(=O)CSc3ccccc3)cc2)n1", "class": "n"}
{"molecule": "Cc1c(C)c2c(c(C)c1O)CCC(C)(COc1ccc(CC3SC(=O)NC3=O)cc1)O2 (configuration not stated)", "class": "n"}
{"molecule": "COc1cc2c(cc1OC)CN(CCc1ccc(NC(=O)c3cccc4c(=O)c5cccc(OC)c5[nH]c34)cc1)CC2", "class": "n"}
{"molecule": "Cc1cc(SCc2sc(-c3ccc(C(F)(F)F)cc3)nc2C)ccc1OCC(=O)O", "class": "n"}
{"molecule": "Clc1cccc(Cl)c1NC1=NCCN1", "class": "n"}
{"molecule": "Cc1[nH]c(=O)c(C#N)cc1-c1ccncc1", "class": "n"}
{"molecule": "Cc1csc(NC(=O)c2sc3nc4c(c(C(F)(F)F)c3c2N)CCC4)n1", "class": "y"}
{"molecule": "CN(C(=O)c1ccc(F)cc1C(F)(F)F)C1CCN(c2nnc(-c3ccnn3C)c3ccccc23)CC1", "class": "n"}
{"molecule": "CC(=O)Oc1ccccc1C(=O)O", "class": "n"}
{"molecule": "NCCCC(N)(C(=O)O)C(F)F (configuration not stated)", "class": "n"}
{"molecule": "CC1(C)Cc2c(-c3ccccc3)c(-c3ccc(Cl)cc3)c(CC(=O)O)n2C1", "class": "n"}
{"molecule": "COc1c(Cl)cc2c([nH]c3cnccc32)c1NC(=O)c1cccnc1C", "class": "n"}
{"molecule": "CCOC(=O)C1=C[C@]2(CC)CCCN3CCc4c(n1c1ccccc41)[C@@H]32", "class": "n"}
{"molecule": "COc1cc2nccc(Oc3ccc(NC(=O)NC4CC4)c(Cl)c3)c2cc1C(N)=O", "class": "n"}
{"molecule": "Cc1ccccc1C(OCCN(C)C)c1ccccc1 (configuration not stated)", "class": "n"}
{"molecule": "Cc1[nH]c(=O)c(C#N)cc1-c1ccc2nccn2c1", "class": "n"}
{"molecule": "C[C@@H]1CN(Cc2ccc(F)cc2)[C@@H](C)CN1C(=O)c1cc2c(C(=O)C(=O)N(C)C)cn(C)c2cc1Cl", "class": "n"}
{"molecule": "O=C(O)COCCN1CCN(C(c2ccccc2)c2ccc(Cl)cc2)CC1 (configuration not stated)", "class": "n"}
{"molecule": "COc1ccc2nc(S(=O)Cc3ncc(C)c(OC)c3C)[nH]c2c1 (configuration not stated)", "class": "n"}
{"molecule": "O=C(c1cc(Cc2n[nH]c(=O)c3ccccc23)ccc1F)N1CCN(C(=O)C2CC2)CC1", "class": "n"}
{"molecule": "Cc1cnc(Nc2ccc(OCCN3CCCC3)cc2)nc1Nc1cccc(S(=O)(=O)NC(C)(C)C)c1", "class": "y"}
{"molecule": "CCc1cc(Nc2nccc(-c3c(-c4ccc(OC)c(C(=O)Nc5c(F)cccc5F)c4)nc4ccccn34)n2)c(OC)cc1N1CCC(N2CCN(S(C)(=O)=O)CC2)CC1", "class": "n"}
{"molecule": "CCCc1nn(C)c2c(=O)[nH]c(-c3cc(S(=O)(=O)N4CCN(C)CC4)ccc3OCC)nc12", "class": "n"}
{"molecule": "CCC(C)(C)C(=O)O[C@H]1C[C@@H](C)C=C2C=C[C@H](C)[C@H](CC[C@@H]3C[C@@H](O)CC(=O)O3)[C@H]21", "class": "n"}
{"molecule": "OC(CCN1CCCCC1)(c1ccccc1)C1CC2C=CC1C2 (configuration not stated)", "class": "n"}
{"molecule": "CCCS(=O)(=O)Nc1ccc(F)c(C(=O)c2c[nH]c3ncc(Cl)cc23)c1F", "class": "n"}
{"molecule": "CS(=O)(=O)c1cccc(CNc2nc(Nc3ccc4c(c3)CCC(=O)N4)ncc2C(F)(F)F)c1", "class": "n"}
{"molecule": "CNC(=O)c1ccc(C)c(-n2c(C)cc(OCc3ccc(F)cc3F)c(Br)c2=O)c1", "class": "n"}
{"molecule": "CC(C)OC(=O)C1=CN(C(=O)c2ccc(F)c(F)c2)CC(C)(C)c2c1[nH]c1ccccc21", "class": "n"}
{"molecule": "c1ccc([C@H]2CN3CCSC3=N2)cc1", "class": "n"}
{"molecule": "O=C(Nc1ccc(F)c(C(F)(F)F)c1)Nc1nnc(-c2ccncc2)s1", "class": "n"}
{"molecule": "Cc1cnc(NC(=O)C2=C(O)c3ccccc3S(=O)(=O)N2C)s1", "class": "n"}
{"molecule": "COc1cc(Nc2ncc3c(n2)-c2ccc(Cl)cc2C(c2c(F)cccc2OC)=NC3)ccc1C(=O)O", "class": "y"}
{"molecule": "Cc1oncc1C(=O)Nc1ccc(C(F)(F)F)cc1", "class": "y"}
{"molecule": "NCCc1ccc(O)c(O)c1", "class": "n"}

---

Assay: AP1 Signaling Pathway (AID 357);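 also: ME-180 reporter cells stimulated with EGF at its EC50 level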
Details: ME-180 (cervical carcinoma) AP-1-bla reporter, EGF-induced, beta-lactamase ratio, 5 h; at 38 µM (top of the series)
Inconclusive results are not listed. Activity calls are given as the source filed them. Calls follow the shape of the dose curve; as a rule, active = well fitted curve in either direction with a large enough effect (not every such curve was filed as active); inconclusive = small, poorly fitted or top-dose-only effect, or another doubt; inactive = flat fitted curve, though single readings scatter.
Classes used: True for active, False for inactive

{"smiles-code": "Cc1cn[nH]c1", "class": "False"}
{"smiles-code": "Nc1nc2ccc(OC(F)(F)F)cc2s1", "class": "False"}
{"smiles-code": "CCOC(=O)C1=C[C@@]2(CC)CCCN3CCc4c(n1c1ccccc41)[C@H]32", "class": "True"}
{"smiles-code": "Clc1cccc(Cl)c1NC1=NCCN1", "class": "False"}
{"smiles-code": "CN1CCN(CCCN2c3ccccc3Sc3ccc(C(F)(F)F)cc32)CC1", "class": "False"}
{"smiles-code": "NC(N)=NC(=O)c1nc(Cl)c(N)nc1N", "class": "False"}
{"smiles-code": "CC(=O)Oc1ccccc1C(=O)O", "class": "False"}
{"smiles-code": "NNCCc1ccccc1", "class": "False"}
{"smiles-code": "O=C1CCc2cc(OCCCCc3nnnn3C3CCCCC3)ccc2N1", "class": "False"}
{"smiles-code": "O=c1n(CCCN2CCN(c3cccc(Cl)c3)CC2)nc2ccccn12", "class": "False"}
{"smiles-code": "N=c1nc(N2CCCCC2)cc(N)n1O", "class": "False"}
{"smiles-code": "O=NN(CCCl)C(=O)NCCCl", "class": "False"}
{"smiles-code": "Cn1cnc([N+](=O)[O-])c1Sc1ncnc2nc[nH]c12", "class": "False"}
{"smiles-code": "CNC[C@H](O)c1cccc(O)c1", "class": "False"}

---

System: TAB109
Experiment: qHTS profiling for inhibitors of Plasmodium falciparum proliferation (AID 504749); also: nearly all actives have a fitted effect of over 60% in size
Details: P. falciparum in erythrocytes, SYBR Green DNA, 72 h; series mostly up to 28.7 µM
Results filed as inconclusive are left out. Activity calls are given as the source filed them. The call rests on the fitted dose curve; in most records, active means well fitted inhibition curve with a large enough effect; inconclusive means small, poorly fitted or top-dose-only effect; inactive means flat fitted curve, though single readings scatter.
Classes used: Yes (active), No (inactive)

{"compound": "CCOC(=O)C1=C[C@]2(CC)CCCN3CCc4c(n1c1ccccc41)[C@@H]32", "assay-system": "TAB109", "class": "Yes"}
{"compound": "O=c1n(CCCN2CCN(c3cccc(Cl)c3)CC2)nc2ccccn12", "assay-system": "TAB109", "class": "No"}
{"compound": "NCCCC(N)(C(=O)O)C(F)F (configuration not stated)", "assay-system": "TAB109", "class": "No"}
{"compound": "NNCCc1ccccc1", "assay-system": "TAB109", "class": "No"}
{"compound": "CC(C[N+](C)(C)C)OC(N)=O (configuration not stated)", "assay-system": "TAB109", "class": "No"}
{"compound": "NS(=O)(=O)c1cc2c(cc1Cl)NC=NS2(=O)=O", "assay-system": "TAB109", "class": "No"}
{"compound": "CC(c1cc2ccccc2s1)N(O)C(N)=O (configuration not stated)", "assay-system": "TAB109", "class": "No"}
